ASSAY_SYSTEM: T1, rat NK1 receptor (rat, UniProt P14600)
T1 chain: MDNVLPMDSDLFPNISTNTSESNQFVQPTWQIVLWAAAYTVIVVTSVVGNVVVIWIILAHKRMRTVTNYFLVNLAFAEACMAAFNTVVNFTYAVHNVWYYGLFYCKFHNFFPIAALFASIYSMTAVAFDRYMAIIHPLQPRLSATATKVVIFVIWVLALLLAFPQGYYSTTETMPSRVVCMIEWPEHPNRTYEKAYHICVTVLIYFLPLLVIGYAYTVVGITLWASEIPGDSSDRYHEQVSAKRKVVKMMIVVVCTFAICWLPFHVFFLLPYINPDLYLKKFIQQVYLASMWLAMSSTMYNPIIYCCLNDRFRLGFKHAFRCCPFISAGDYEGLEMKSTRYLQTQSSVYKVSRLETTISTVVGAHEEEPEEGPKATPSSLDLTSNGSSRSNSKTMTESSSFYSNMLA
ASSAY_OVERVIEW: competition
Non-standard residues stand in square brackets, D forms with d. No end group written: not given here. Dmt = Cc1cc(O)cc(C)c1C[C@H](N)C(=O)O
MEASUREMENT_NAME: pKi
Give bare numbers, as −log10 of the molar value.

Problem: What measured pKi goes with [Dmt][dA]FGYPLW (not fully specified (C-terminus)) [AKG118] ?
Result: 7.60
